Test system: NCI-H226
Experiment: NCI tumour cell line growth inhibition, 48 h
Calls of active or inactive are those of the source. Cut-off read from the data, not from the text of the source: active = GI50 up to about 1.1 µM and inactive = higher.
Respond only with the outcome that fits, drawn from TRUE for active, FALSE for inactive

## Input Short answer needed: outcome of this test for "CCOC(=O)c1[nH]cc(C)c1-c1cccn1-c1ccc(Cl)cc1[N+](=O)[O-]" ?
## Output FALSE

## Input What did the test return for "O=[N+]([O-])C(=C(Nc1cccc2cccnc12)Nc1cccc2cccnc12)C(Cl)=C(Cl)Cl" ?
## Output FALSE

## Input Record lookup: outcome of this test for CC[C@H](C)[C@H]1NC(=O)[C@@H](NC(=O)[C@@H](CC(C)C)N(C)C(=O)C2CCCN2C(=O)[C@H](C)O)[C@@H](C)OC(=O)[C@H](Cc2ccc(OC)cc2)N(C)C(=O)[C@@H]2CCCN2C(=O)[C@H](CCCCNC(=O)OCc2ccccc2)NC(=O)[C@H](C)C(=O)[C@H](C(C)C)OC(=O)C[C@@H]1O (stereo not given in full) ?
## Output FALSE

## Input Any idea what this test logged for Cc1cn(C2CC(N)C(C(=O)NCC(=O)O)O2)c(=O)[nH]c1=O (stereo not given) ?
## Output FALSE

## Input Identify the outcome logged in this assay for the compound shown: "CSC1=NN=C(SC)NN1"
## Output TRUE

## Input Could you check what this test reported for "COc1ccc(/C(Cl)=C(\C=O)c2ccc(F)cc2)cc1OC" ?
## Output FALSE

## Input Assay outcome for "CON(C)c1nc(N(C)OC)nc(N(C)OC)n1" : what was it?
## Output FALSE

## Input What classification did "COc1cc(COC(=O)N(C)[C@@H](Cc2ccccc2)C(=O)O)c([N+](=O)[O-])cc1OC" end up with in this test?
## Output FALSE

## Input Assay outcome for "C[n+]1c(-c2ccc(/C=N\N3CCN(/N=C/c4ccc(-c5cn6ccsc6[n+]5C)cc4)CC3)cc2)cn2ccsc21" : what was it?
## Output FALSE

## Input Tell me the recorded outcome of this test for "COC(=O)/C=C(/C(=O)OC)c1c(C)c(C)c2c(C)cc(C)cc(C)c1-2" .
## Output FALSE

---

Test system: SK-MEL-5
Test: NCI tumour cell line growth inhibition, 48 h
Activity calls are given as the source filed them. No stated cut-off is given here; in the data, active = GI50 up to about 1.1 µM and inactive = higher.
Choose the fitting class; nothing outside y (active), n (inactive) is accepted.

## Input # fetch the recorded call for COc1ccc2c(c1)CCC1C3(CCCC21C)OCCO3 (stereo unspecified) here
## Output n

## Input Test call for this compound, please: O=C(O)CCC(C(=O)O)N1C(=O)c2ccccc2C1=O (stereo unspecified)
## Output n

## Input Check the results log: what was the call for "Cc1ccc(S(=O)(=O)NC(=O)NCCc2ccc(O)c(O)c2)cc1" ?
## Output n

## Input Assay outcome for Nc1ncnc2c1ncn2C1CC(O)C(CO)O1 (stereo unspecified) : what was it?
## Output n

## Input Recorded test call requested for CC(=O)CC(=O)OC1CC(C)CCC1C(C)C (stereo unspecified)
## Output n

## Input Give the logged outcome of this assay for the following compound: "CC1CCOc2ccc(cc2)/C=N\c2ccc(cc2)-c2ccc(cc2)/N=C\c2ccc(cc2)OCC1"
## Output n

## Input Test call for this compound, please: "CCOC(=O)c1nc2c(Cl)c3ncccc3cc2[nH]c1=O"
## Output n

## Input // param item: "COC(=O)c1ccccc1Nc1nc(-c2cccs2)nc2cc(OC)c(OC)cc12" ; yields the recorded call
## Output n

## Input Which outcome was entered for the compound "CCOc1ccc(/C(C=O)=C(\Cl)c2ccc(OC)cc2)cc1" in this test?
## Output n

## Input Test call for this compound, please: "CC1=CC(=O)N(n2c(-c3ccccc3)n[nH]c2=O)C1=O"
## Output n

## Input Tell me the assay call for "CC(=O)Nc1sc([N+](=O)[O-])cc1S(=O)(=O)c1ccc(Cl)cc1" please.
## Output y
